These measurements were taken from patent US8063225B2.

Measured IC50 accompanies every entry in the list below.
Target: IGF1 receptor (Homo sapiens)
Construct: MCF7 human breast cancer cells expressing IGF1 receptor; endogenous in cells
Sequence (P08069 741-1367 limits assumed): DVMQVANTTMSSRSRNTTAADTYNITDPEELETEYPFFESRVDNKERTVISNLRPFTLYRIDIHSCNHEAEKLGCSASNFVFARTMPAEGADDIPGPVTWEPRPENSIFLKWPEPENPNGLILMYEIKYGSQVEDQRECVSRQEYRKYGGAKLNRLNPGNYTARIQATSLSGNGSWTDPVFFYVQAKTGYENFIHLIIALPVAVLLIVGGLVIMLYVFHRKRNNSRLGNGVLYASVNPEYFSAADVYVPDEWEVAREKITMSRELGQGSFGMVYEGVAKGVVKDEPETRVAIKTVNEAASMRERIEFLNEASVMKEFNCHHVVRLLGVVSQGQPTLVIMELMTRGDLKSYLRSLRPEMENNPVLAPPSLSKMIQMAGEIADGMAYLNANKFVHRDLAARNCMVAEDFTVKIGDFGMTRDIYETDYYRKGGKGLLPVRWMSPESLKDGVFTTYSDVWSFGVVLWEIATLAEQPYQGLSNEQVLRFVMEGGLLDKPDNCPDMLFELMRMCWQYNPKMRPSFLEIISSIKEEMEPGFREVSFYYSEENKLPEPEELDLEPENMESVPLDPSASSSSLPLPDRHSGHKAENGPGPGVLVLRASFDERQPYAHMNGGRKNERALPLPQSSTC
Sequence (P08069 31-736 partner limits assumed): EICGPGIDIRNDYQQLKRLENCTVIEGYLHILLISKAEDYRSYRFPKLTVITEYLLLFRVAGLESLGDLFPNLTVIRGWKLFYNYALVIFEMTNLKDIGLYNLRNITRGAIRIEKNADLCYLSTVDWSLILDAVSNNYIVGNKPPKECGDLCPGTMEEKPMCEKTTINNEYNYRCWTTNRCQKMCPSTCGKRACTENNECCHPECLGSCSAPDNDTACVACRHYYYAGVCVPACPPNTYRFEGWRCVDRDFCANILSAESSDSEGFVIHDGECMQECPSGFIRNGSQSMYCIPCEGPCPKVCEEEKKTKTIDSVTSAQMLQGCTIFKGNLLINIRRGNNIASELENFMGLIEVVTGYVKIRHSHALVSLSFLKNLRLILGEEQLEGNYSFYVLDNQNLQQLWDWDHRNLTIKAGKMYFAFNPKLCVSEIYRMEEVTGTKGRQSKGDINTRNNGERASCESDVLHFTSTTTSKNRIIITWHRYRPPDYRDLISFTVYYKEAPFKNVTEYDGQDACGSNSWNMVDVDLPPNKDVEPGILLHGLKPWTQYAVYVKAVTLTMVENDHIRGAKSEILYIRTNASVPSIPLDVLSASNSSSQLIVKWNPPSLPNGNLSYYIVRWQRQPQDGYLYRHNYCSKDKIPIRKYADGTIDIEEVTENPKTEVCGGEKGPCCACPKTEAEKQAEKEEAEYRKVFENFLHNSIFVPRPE
Test: ELISA-based assay of IGF1 receptor autophosphorylation inhibition in cells
Conditions: IGF1R phosphorylation inhibition in MCF7 cells
MEASURED ATTRIBUTE: IC50

- C[C@H](O)CN1C(=O)c2cc3nc(-c4c(NC[C@@H](O)c5cccc(Cl)c5)cc[nH]c4=O)[nH]c3cc2C1=O [compound 31]: 5 to 15 µM
- CN1CCC(N2C(=O)c3cc4nc(-c5c(NC[C@@H](O)COc6c(F)ccc(Cl)c6F)cc[nH]c5=O)[nH]c4cc3C2=O)CC1 [compound 95]: 5 to 15 µM
- O=C1NC(=O)c2cc3[nH]c(-c4c(NC[C@@H](O)c5cccc(Cl)c5)cc[nH]c4=O)nc3cc21 [compound 11]: 0.5 to 5 µM
- CN1CCC(N2C(=O)c3cc4nc(-c5c(NC[C@@H](O)c6cccc(Cl)c6)cc[nH]c5=O)[nH]c4cc3C2=O)CC1 [compound 1]: < 0.5 µM
- O=C1c2cc3nc(-c4c(NC[C@@H](O)c5cccc(Cl)c5)cc[nH]c4=O)[nH]c3cc2C(=O)N1CCc1ccncc1 [compound 28]: > 15 µM
- O=C1c2cc3nc(-c4c(NC[C@@H](O)c5cccc(Cl)c5)cc[nH]c4=O)[nH]c3cc2C(=O)N1[C@@H]1CN2CCC1CC2 [compound 33]: > 15 µM
- CCc1cc(C)ccc1OC[C@H](O)CNc1cc[nH]c(=O)c1-c1nc2cc3c(cc2[nH]1)CN(C1CCN(C)CC1)C3=O [compound 141]: 0.5 to 5 µM
- Cc1ccc(Cl)c(C)c1OC[C@H](O)CNc1cc[nH]c(=O)c1-c1nc2cc3c(cc2[nH]1)C(=O)N(C1CCN(C)CC1)C3=O [compound 111]: > 15 µM
- Cc1ccc(OC[C@H](O)CNc2cc[nH]c(=O)c2-c2nc3c(C)c4c(cc3[nH]2)C(=O)N(C2CCN(C)CC2)C4=O)c(C)c1 [compound 110]: 5 to 15 µM
- CN1CCN(CCCN2C(=O)c3cc4nc(-c5c(NC[C@@H](O)c6cccc(Cl)c6)cc[nH]c5=O)[nH]c4cc3C2=O)CC1 [compound 19]: > 15 µM
- Cc1ccc(OC[C@H](O)CNc2cc[nH]c(=O)c2-c2nc3cc4c(cc3[nH]2)CN(C2CCN(C)CC2)C4=O)c(C)c1 [compound 130]: 0.5 to 5 µM
- O=C1c2cc3nc(-c4c(NC[C@@H](O)c5cccc(Cl)c5)cc[nH]c4=O)[nH]c3cc2C(=O)N1CCCN1CCOCC1 [compound 12]: 0.5 to 5 µM
- Cc1ccc(OCC(O)CNc2cc[nH]c(=O)c2-c2nc3cc4c(cc3[nH]2)C(=O)N(CC2CCN(CCO)CC2)C4=O)c(C)c1 (stereo not shown) [compound 37]: 5 to 15 µM
